Below, each entry is listed with its recorded EC50.
Test system: phospho-ERK in melanoma derived WM-266-4 cells
Assay: Mechanistic cellular assay for Raf kinase activity (phospho-ERK, Bio-Plex)
Type: cell-based
Details: Homo sapiens, treated 1-2 hr at 37° C., serum free medium, read-out: pERK EC50

Sample answers from the record:
>>> df
                                   molecule                              study_target  observable  reported_measurement
0  C[C@@H](NC(=O)c1cc2c(cn1)ncn2[C@H]1CCNC1)c1cnc(Nc2ccc(C(F)(F)F)cc2)s1  phospho-ERK in melanoma derived WM-266-4 cells        EC50           0.1 to 1 µM
1  C[C@@H](NC(=O)c1cn[nH]c1)c1ncc(C(=O)Nc2cc(C(F)(F)F)c(Cl)cn2)s1  phospho-ERK in melanoma derived WM-266-4 cells        EC50           0.1 to 1 µM
2  CC(NC(=O)c1cc2cn(C)nc2cn1)c1cnc(Nc2ccc(C(F)(F)F)cc2)s1 (centres unmarked)  phospho-ERK in melanoma derived WM-266-4 cells        EC50              ≤ 0.1 µM

Using the record for C[C@@H](NC(=O)c1ccc2[nH]cnc2c1)c1ncc(C(=O)Nc2cc(C(F)(F)F)c(Cl)cn2)s1 , report its EC50. 0.1 to 1 µM

Reported EC50, molecule CC(NC(=O)c1cn2c(N)cnc2cn1)c1ncc(Nc2ccc(C(F)(F)F)cc2)s1 (centres unmarked) : ____ 0.1 to 1 µM

Given C[C@@H](NC(=O)c1cnn(C)c1N)c1ncc(C(=O)Nc2cc(C(F)(F)F)c(Cl)cn2)s1 , state its recorded EC50. ≤ 0.1 µM

Could you share which EC50 value was measured for CCNCCn1cnc2cnc(C(=O)NC(C)c3cnc(Nc4ccc(C(F)(F)F)cc4)s3)cc21 (centres unmarked) ? 0.1 to 1 µM

State the recorded EC50 for this entry: CCn1c(C(=O)N[C@H](C)c2ncc(C(=O)Nc3cc(C(F)(F)F)c(Cl)cn3)s2)cnc1C ≤ 0.1 µM

Recorded values, source patent US20120040951A1.
